Sourced from a melting point compilation (Tetko et al.; mined from patent text by program, amines drawn as free bases though some values may be those of a salt)

For each of the molecules below, state its melting point.

Worked cases, answers included:
{"columns": ["molecule", "reported_result"],
 "data": [
  ["COc1ccc2cnc(Cl)nc2c1C(C)C", "135 to 137 °C"],
  ["CCOC(=O)COc1ccc2cnn(C[C@H](C)NC(=O)OCc3ccccc3)c2c1Br", "89 to 90 °C"],
  ["CC(O)COc1ccc2c(c1)OC(C)(C)CC2=O (stereo not given)", "111 to 113 °C"],
  ["O=C(CCOCc1ccccc1)Nc1ccc(C(=O)Nc2ccccc2[N+](=O)[O-])cc1", "140 °C"]
]}

Turning now to a further molecule:
Data request: Name the recorded melting point for COc1cc(C(C)=O)ccc1OCCCN1CCC(c2n[nH]c3ccccc23)CC1 .
Data returned: 171 to 173 °C
